Data provenance: patent US6417359B1

- Subject of test: muscle-type receptors (Homo sapiens, UniProt P02708+P07510+P11230+Q07001)
- Sequence (P02708 whole entry): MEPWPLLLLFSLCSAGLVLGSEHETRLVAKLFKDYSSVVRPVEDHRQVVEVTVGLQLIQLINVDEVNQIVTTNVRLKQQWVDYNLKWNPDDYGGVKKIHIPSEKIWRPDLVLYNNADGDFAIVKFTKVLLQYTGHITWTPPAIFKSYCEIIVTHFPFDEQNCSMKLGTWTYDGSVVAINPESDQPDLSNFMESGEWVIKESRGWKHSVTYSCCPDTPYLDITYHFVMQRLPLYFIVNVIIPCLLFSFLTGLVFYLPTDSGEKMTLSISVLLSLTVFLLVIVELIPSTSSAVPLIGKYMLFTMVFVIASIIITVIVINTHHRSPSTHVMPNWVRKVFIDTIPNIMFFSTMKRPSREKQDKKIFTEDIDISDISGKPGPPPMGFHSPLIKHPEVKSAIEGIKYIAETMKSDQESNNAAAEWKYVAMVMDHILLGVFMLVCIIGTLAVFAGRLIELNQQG
- Sequence (P11230 24-501): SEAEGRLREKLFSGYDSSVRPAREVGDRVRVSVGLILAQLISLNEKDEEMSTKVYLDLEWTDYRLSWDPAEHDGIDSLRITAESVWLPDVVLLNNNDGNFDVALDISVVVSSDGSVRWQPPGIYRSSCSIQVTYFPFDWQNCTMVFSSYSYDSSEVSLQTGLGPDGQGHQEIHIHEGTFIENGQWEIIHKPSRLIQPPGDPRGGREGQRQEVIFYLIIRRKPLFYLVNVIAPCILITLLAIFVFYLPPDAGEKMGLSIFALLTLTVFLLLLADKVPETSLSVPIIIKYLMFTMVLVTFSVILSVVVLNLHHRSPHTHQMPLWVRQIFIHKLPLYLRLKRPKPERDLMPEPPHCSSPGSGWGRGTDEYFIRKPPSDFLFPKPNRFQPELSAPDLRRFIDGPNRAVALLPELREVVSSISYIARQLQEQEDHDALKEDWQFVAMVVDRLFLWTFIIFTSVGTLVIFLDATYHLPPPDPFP
- Sequence (P07510 23-517): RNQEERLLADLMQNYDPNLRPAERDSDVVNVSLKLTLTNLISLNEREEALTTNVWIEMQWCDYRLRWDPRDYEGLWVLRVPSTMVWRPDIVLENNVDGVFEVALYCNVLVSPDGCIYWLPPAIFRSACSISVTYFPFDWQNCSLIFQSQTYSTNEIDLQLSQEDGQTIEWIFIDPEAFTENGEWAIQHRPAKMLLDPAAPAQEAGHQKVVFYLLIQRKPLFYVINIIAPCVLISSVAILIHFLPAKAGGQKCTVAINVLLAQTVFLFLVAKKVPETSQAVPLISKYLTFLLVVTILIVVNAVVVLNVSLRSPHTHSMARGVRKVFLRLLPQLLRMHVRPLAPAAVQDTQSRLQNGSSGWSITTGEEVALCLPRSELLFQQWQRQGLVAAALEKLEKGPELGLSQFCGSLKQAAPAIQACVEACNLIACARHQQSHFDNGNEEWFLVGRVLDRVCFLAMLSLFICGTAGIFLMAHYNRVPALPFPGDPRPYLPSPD
- Sequence (Q07001 22-517): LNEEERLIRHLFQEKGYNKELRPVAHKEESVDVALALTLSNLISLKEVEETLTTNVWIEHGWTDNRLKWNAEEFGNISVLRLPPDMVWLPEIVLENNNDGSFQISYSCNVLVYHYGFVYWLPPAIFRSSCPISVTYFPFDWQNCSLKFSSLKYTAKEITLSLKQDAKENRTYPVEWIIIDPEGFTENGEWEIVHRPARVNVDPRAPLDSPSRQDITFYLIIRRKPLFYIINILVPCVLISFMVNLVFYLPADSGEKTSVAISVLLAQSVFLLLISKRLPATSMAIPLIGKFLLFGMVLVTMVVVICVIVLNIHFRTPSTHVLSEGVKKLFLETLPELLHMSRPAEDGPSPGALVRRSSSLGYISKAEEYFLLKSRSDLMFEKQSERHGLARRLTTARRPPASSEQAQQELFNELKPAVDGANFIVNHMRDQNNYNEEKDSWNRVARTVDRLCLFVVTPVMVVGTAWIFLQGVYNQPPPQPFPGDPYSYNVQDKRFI
- Method notes: Determination of interaction with muscle receptors
- Assay type: cell-based
- Condition summary: percentage of maximal activation induced by (S)-(−)-nicotine
Short version: Emax at least 80% is MET, less is NOT MET.

Worked cases, answers included:
# Compound, Cat
data = [
    ("c1cncc(C2C3CC4CC(C3)CN2C4)c1 (centres unmarked) [Sample No. 1]", "NOT MET"),
    ("CCOc1cncc(C2C3CC4CC(C3)CN2C4)c1 (centres unmarked) [Sample No. 4]", "NOT MET"),
    ("CC(C)Oc1cncc(C2C3CC4CC(C3)CN2C4)c1 (centres unmarked) [Sample No. 5]", "MET"),
    ("Brc1cncc(C2C3CC4CC(C3)CN2C4)c1 (centres unmarked) [Sample No. 2]", "NOT MET"),
]

// switching to the query compound
In: Quick check, Emax >= 80%? Cl.Cl.Cl.Nc1cncc(C2C3CC4CC(C3)CN2C4)c1 (centres unmarked) [Sample No. 3, trihydrochloride]
Out: NOT MET

----------
- Subject of test: nicotinic receptors associated with dopamine release
- Method notes: Dopamine release (receptor activation/inhibition)
- Condition summary: concentration resulting in 50% inhibition of agonist induced receptor activation
Readout name: pIC50
Numbers only, as −log10 of the molar value.

In: May I ask what pIC50 has been recorded for CCOc1cncc(C2C3CC4CC(C3)CN2C4)c1 (stereo not shown) ?
Out: 6.07
